assay: AUC in Sprague-Dawley rat at 300 mg/kg, po administered for 14 days; type: ADME, organism-based; parameters: dose 300 mg/kg, route oral; settings: plasma
outcome measure: AUC at 336 h (µg·h/mL)
Write down the numeric answer in µg·h/mL and omit the unit.

GET /value?item= CCNC(=O)[C@H]1C[C@@](F)(c2ccc(CN3CCCC3)c(F)c2)C1 [PF-03654746] &field=AUC at 336 h returns 189

###

Please go through the items and note down their MTD at 168 h.
assay: in vivo; details: beagle, dog, po
Description: Toxicity in po dosed beagle dog administered for 7 days

GET /value?item= `CCNC(=O)[C@H]1C[C@@](F)(c2ccc(CN3CCCC3)c(F)c2)C1` &field=MTD at 168 h returns ≥ 15 mg/kg

GET /value?item= `CC(C)CNC(=O)[C@H]1C[C@@](F)(c2ccc(CN3CCCC3)c(F)c2)C1` &field=MTD at 168 h returns ≥ 15 mg/kg

GET /value?item= `c1cc([C@H]2C[C@@H](CN3CCOCC3)C2)ccc1CN1CCCC1` &field=MTD at 168 h returns < 10 mg/kg

GET /value?item= `CC(=O)N(C)C[C@H]1C[C@H](c2ccc(CN3CCCC3)c(Cl)c2)C1` &field=MTD at 168 h returns < 30 mg/kg

###

outcome measure: pKi
Please express pKi as -log10 of the molar concentration.

Entry `c1cc([C@H]2C[C@@H](CN3CCOCC3)C2)ccc1CN1CCCC1` , Histamine H3 receptor (Homo sapiens) data, pKi value: 9.05

Entry `c1cnc(OC[C@H]2C[C@H](c3ccc(CN4CCCC4)cc3)C2)nc1` , Histamine H3 receptor (Homo sapiens) data, pKi value: 7.92

Entry `CCNC(=O)[C@H]1C[C@@](F)(c2ccc(CN3CCCC3)c(F)c2)C1` , Histamine H3 receptor (Homo sapiens) data, pKi value: 8.77

Entry `CC(=O)N(C)C[C@H]1C[C@H](c2ccc(CN3CCCC3)c(Cl)c2)C1` , Histamine H3 receptor (Homo sapiens) data, pKi value: 8.48

###

assay: in vivo; conditions: Sprague-Dawley, rat, po
Description: Cmax in po dosed Sprague-Dawley rat administered for 14 days
Please go through the items and note down their Cmax at 336 h.
Write down the numeric answer in µM and omit the unit.

GET /value?item= `CC(C)CNC(=O)[C@H]1C[C@@](F)(c2ccc(CN3CCCC3)c(F)c2)C1` &field=Cmax at 336 h returns 23

GET /value?item= `CC(=O)N(C)C[C@H]1C[C@H](c2ccc(CN3CCCC3)c(Cl)c2)C1` &field=Cmax at 336 h returns 6.29

GET /value?item= `CCNC(=O)[C@H]1C[C@@](F)(c2ccc(CN3CCCC3)c(F)c2)C1` &field=Cmax at 336 h returns 43.5

GET /value?item= `c1cc([C@H]2C[C@@H](CN3CCOCC3)C2)ccc1CN1CCCC1` &field=Cmax at 336 h returns 5

GET /value?item= `c1cnc(OC[C@H]2C[C@H](c3ccc(CN4CCCC4)cc3)C2)nc1` &field=Cmax at 336 h returns 0.402

###

assay: physchem
Description: Dissociation constant, pKa of the compound
Please go through the items and note down their pKa.

GET /value?item= `c1cnc(OC[C@H]2C[C@H](c3ccc(CN4CCCC4)cc3)C2)nc1` &field=pKa returns 9.8

GET /value?item= `c1cc([C@H]2C[C@@H](CN3CCOCC3)C2)ccc1CN1CCCC1` &field=pKa returns 7.7

GET /value?item= `CCNC(=O)[C@H]1C[C@@](F)(c2ccc(CN3CCCC3)c(F)c2)C1` &field=pKa returns 9.2

GET /value?item= `CC(=O)N(C)C[C@H]1C[C@H](c2ccc(CN3CCCC3)c(Cl)c2)C1` &field=pKa returns 9.3

GET /value?item= `CC(C)CNC(=O)[C@H]1C[C@@](F)(c2ccc(CN3CCCC3)c(F)c2)C1` &field=pKa returns 9.2

###

assay: in vivo; settings: Sprague-Dawley, rat, po
Description: Oral bioavailability in Sprague-Dawley rat
outcome measure: bioavailability (%)
Write down the numeric answer in % and omit the unit.

GET /value?item= CC(C)CNC(=O)[C@H]1C[C@@](F)(c2ccc(CN3CCCC3)c(F)c2)C1 [PF-03654764] &field=bioavailability returns 20.2

GET /value?item= CCNC(=O)[C@H]1C[C@@](F)(c2ccc(CN3CCCC3)c(F)c2)C1 [PF-03654746] &field=bioavailability returns 25.9

###

target: Histamine H3 receptor (Rattus norvegicus, UniProt Q9QYN8)
Sequence (Q9QYN8 whole entry): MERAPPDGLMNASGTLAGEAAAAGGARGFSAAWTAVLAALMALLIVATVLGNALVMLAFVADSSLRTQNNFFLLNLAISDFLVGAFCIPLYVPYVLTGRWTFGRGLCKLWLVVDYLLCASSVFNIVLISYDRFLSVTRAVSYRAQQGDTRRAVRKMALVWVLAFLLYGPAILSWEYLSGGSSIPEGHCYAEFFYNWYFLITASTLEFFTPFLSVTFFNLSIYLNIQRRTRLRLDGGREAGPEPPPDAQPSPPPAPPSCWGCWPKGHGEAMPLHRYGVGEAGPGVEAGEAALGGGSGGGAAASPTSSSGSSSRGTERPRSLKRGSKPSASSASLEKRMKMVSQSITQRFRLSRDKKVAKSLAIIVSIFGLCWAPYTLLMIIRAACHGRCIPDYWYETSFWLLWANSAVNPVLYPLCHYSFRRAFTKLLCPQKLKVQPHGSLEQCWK
pKi: −log10 of the molar value.
// no strictly below 8 in pKi; yes otherwise

In plain terms: is recorded pKi at least 8 for `CC(=O)N(C)C[C@H]1C[C@H](c2ccc(CN3CCCC3)c(Cl)c2)C1` ?
no

In plain terms: is recorded pKi at least 8 for `c1cnc(OC[C@H]2C[C@H](c3ccc(CN4CCCC4)cc3)C2)nc1` ?
no

In plain terms: is recorded pKi at least 8 for `c1cc([C@H]2C[C@@H](CN3CCOCC3)C2)ccc1CN1CCCC1` ?
yes

###

experiment: in vivo; conditions: Sprague-Dawley, rat, po
Description: Toxicity in po dosed Sprague-Dawley rat administered for 14 days
outcome measure: MTD at 336 h

GET /value?item= `c1cnc(OC[C@H]2C[C@H](c3ccc(CN4CCCC4)cc3)C2)nc1` &field=MTD at 336 h returns ≥ 5 mg/kg

GET /value?item= `CCNC(=O)[C@H]1C[C@@](F)(c2ccc(CN3CCCC3)c(F)c2)C1` &field=MTD at 336 h returns 30 mg/kg

GET /value?item= `c1cc([C@H]2C[C@@H](CN3CCOCC3)C2)ccc1CN1CCCC1` &field=MTD at 336 h returns ≥ 30 mg/kg

GET /value?item= `CC(C)CNC(=O)[C@H]1C[C@@](F)(c2ccc(CN3CCCC3)c(F)c2)C1` &field=MTD at 336 h returns ≥ 300 mg/kg

GET /value?item= `CC(=O)N(C)C[C@H]1C[C@H](c2ccc(CN3CCCC3)c(Cl)c2)C1` &field=MTD at 336 h returns ≥ 300 mg/kg

###

experiment: Ratio of drug uptake in brain to plasma of Sprague-Dawley rat; format: ADME; settings: read-out: BPR
outcome measure: Kp
Quick one: just the number, no unit, thanks!

GET /value?item= CCNC(=O)[C@H]1C[C@@](F)(c2ccc(CN3CCCC3)c(F)c2)C1 [PF-03654746] &field=Kp returns 2.1

###

experiment: Cmax in Sprague-Dawley rat at 400 mg/kg, po administered for 4 days; format: ADME, organism-based; parameters: dose 400 mg/kg, route oral; conditions: in vivo
outcome measure: Cmax
Kindly format the answer as number then unit.

GET /value?item= `c1cc([C@H]2C[C@@H](CN3CCOCC3)C2)ccc1CN1CCCC1` &field=Cmax returns 3920 ng/mL

###

Please go through the items and note down their efflux ratio.
test system: MDR1 (human); assay: in vitro; details: dog, MDCK-MDR1
Description: Efflux ratio of permeability across basal to apical side over apical to basolateral side in dog MDCK cells expressing human MDR1

GET /value?item= `c1cc([C@H]2C[C@@H](CN3CCOCC3)C2)ccc1CN1CCCC1` &field=efflux ratio returns < 0.95

GET /value?item= `c1cnc(OC[C@H]2C[C@H](c3ccc(CN4CCCC4)cc3)C2)nc1` &field=efflux ratio returns 0.9

GET /value?item= `CCNC(=O)[C@H]1C[C@@](F)(c2ccc(CN3CCCC3)c(F)c2)C1` &field=efflux ratio returns 1.1

GET /value?item= `CC(=O)N(C)C[C@H]1C[C@H](c2ccc(CN3CCCC3)c(Cl)c2)C1` &field=efflux ratio returns 1.27

GET /value?item= `CC(C)CNC(=O)[C@H]1C[C@@](F)(c2ccc(CN3CCCC3)c(F)c2)C1` &field=efflux ratio returns 0.96

###

Please go through the items and note down their fraction unbound.
assay: in vitro; settings: human, plasma
Description: Fraction unbound in human plasma
Quick one: just the number, no unit, thanks!

GET /value?item= `CC(=O)N(C)C[C@H]1C[C@H](c2ccc(CN3CCCC3)c(Cl)c2)C1` &field=fraction unbound returns 0.24

GET /value?item= `c1cnc(OC[C@H]2C[C@H](c3ccc(CN4CCCC4)cc3)C2)nc1` &field=fraction unbound returns 0.44

GET /value?item= CCNC(=O)[C@H]1C[C@@](F)(c2ccc(CN3CCCC3)c(F)c2)C1 [PF-03654746] &field=fraction unbound returns 0.66

GET /value?item= CC(C)CNC(=O)[C@H]1C[C@@](F)(c2ccc(CN3CCCC3)c(F)c2)C1 [PF-03654764] &field=fraction unbound returns 0.34

GET /value?item= `c1cc([C@H]2C[C@@H](CN3CCOCC3)C2)ccc1CN1CCCC1` &field=fraction unbound returns 0.78

###

assay: in vivo; conditions: Sprague-Dawley, rat, plasma, po
Description: AUC (0 to 24 hrs) in po dosed Sprague-Dawley rat administered for 14 days
// FALSE strictly below 20 µg·h/mL in AUC at 24 h; TRUE otherwise

In plain terms: is recorded AUC at 24 h at least 20 µg·h/mL for `c1cnc(OC[C@H]2C[C@H](c3ccc(CN4CCCC4)cc3)C2)nc1` ?
FALSE

In plain terms: is recorded AUC at 24 h at least 20 µg·h/mL for `CCNC(=O)[C@H]1C[C@@](F)(c2ccc(CN3CCCC3)c(F)c2)C1` ?
TRUE

In plain terms: is recorded AUC at 24 h at least 20 µg·h/mL for `c1cc([C@H]2C[C@@H](CN3CCOCC3)C2)ccc1CN1CCCC1` ?
FALSE

In plain terms: is recorded AUC at 24 h at least 20 µg·h/mL for `CC(=O)N(C)C[C@H]1C[C@H](c2ccc(CN3CCCC3)c(Cl)c2)C1` ?
FALSE

In plain terms: is recorded AUC at 24 h at least 20 µg·h/mL for `CC(C)CNC(=O)[C@H]1C[C@@](F)(c2ccc(CN3CCCC3)c(F)c2)C1` ?
TRUE

These measurements were taken from ChEMBL document CHEMBL2203251.
